# credit: patent US20160168140A1

Would you mind telling me the reported IC50 of each entry?
Expressed in µM, but write only the number.

Reported E. coli RecA (Escherichia coli) IC50 for item Clc1ccc(/C=C/c2c[nH]c3ccc(Br)cc23)cc1Cl [MLJ-02-086B] was 15

Response field IC50 (E. coli RecA (Escherichia coli)) for item CN(C)CCCNc1nc(/C=C/c2ccc(Cl)c(Cl)c2)nc2c(C(F)(F)F)cccc12 [MLJ-02-070A] : 12

====

Tested on: Acinetobacter baumannii (Ab23)
Experiment: MIC shift assay of antibiotics (broth microdilution)
Format: cell-based
Conditions: compound concentration 8 μM; fold shift of colistin MIC; nc = no changeover or no shift
OBSERVED_PROPERTY: colistin MIC shift, Ab23 at (compd concentration)
Form entry: enter the amount, then its unit.

The recorded colistin MIC shift, Ab23 at (compd concentration) for entry Cc1cccc2c(NCCCN(C)C)nc(-c3cccc(C(F)(F)F)c3)nc12 equals 16x

So for CN(C)CC(=O)n1nc(-c2ccc(Cl)c(Cl)c2)c2ccc(C(F)(F)F)cc21 [559b] , the logged colistin MIC shift, Ab23 at (compd concentration) turned out to be 8x

Reported colistin MIC shift, Ab23 at (compd concentration) of CCN(CC)CCCC(C)Nc1nc(/C=C/c2ccc(C(F)(F)F)cc2)nc2cc(Cl)ccc12 (racemic) : 4x

For reference, reported colistin MIC shift, Ab23 at (compd concentration) for CN(C)CCn1nc(-c2ccc(Cl)c(Cl)c2)c2ccc(C(F)(F)F)cc21 [559c] stands at 2x

====

Tested on: panel of Gram-negative bacteria with different colistin susceptibilities
Assay: Fractional inhibitory concentration index (FICI) checkerboard assay with colistin
Type: cell-based
Conditions: colistin-resistant P. aeruginosa
Procedure: The fractional inhibitory concentration index (FICI) was determined in combination with colistin using the broth microdilution susceptibility test method as described by the CLSI (Methods for Dilution Antimicrobial Susceptibility Tests for Bacteria That Grow Aerobically; Approved Standard-Ninth Edition. 2012. CLSI document M07-A9. CLIS, 940 West Valley Road, Suite 1400, Wayne, Pa. 19087-1898 USA). […]
OBSERVED_PROPERTY: MIC Shift of Colistin and Potentiator in Resistant Bacteria (x)
Numeric answer only, unit x assumed.

Please fill in: MIC Shift of Colistin and Potentiator in Resistant Bacteria reported for FC(F)(F)c1ccc2c(-c3ccc(Cl)c(Cl)c3)n[nH]c2c1 [compound II] = 16

Recorded result, Clc1ccc(/C=C/c2c[nH]c3ccc(Br)cc23)cc1Cl [compound I] , MIC Shift of Colistin and Potentiator in Resistant Bacteria: 16

response.value for CN(C)CCCNc1nc(-c2cccc(-c3cc(C(F)(F)F)ccc3F)c2)nc2c(C(F)(F)F)cccc12 [IV] (field: MIC Shift of Colistin and Potentiator in Resistant Bacteria) = 33

Reported MIC Shift of Colistin and Potentiator in Resistant Bacteria ( CN(C)CCCNc1nc(/C=C/c2ccc(Cl)c(Cl)c2)nc2c(C(F)(F)F)cccc12 [compound III] ) = 33

====

For each of the compounds below, state its colistin MIC shift, Ab23 at (compd concentration).
Tested on: Acinetobacter baumannii (Ab23)
Test: MIC shift assay of antibiotics (broth microdilution)
Format: cell-based
Settings: compound concentration 8 μM; fold shift of colistin MIC; nc = no changeover or no shift
The response must be a number in x with no trailing unit.

Tested on Acinetobacter baumannii (Ab23): CN(C)CCCNc1nc(/C=C/c2ccc(Br)cc2)nc2cc(Cl)ccc12 . Observed colistin MIC shift, Ab23 at (compd concentration): 8

Test item CCN(CC)CCCC(C)Nc1nc(-c2cc(Br)c3ccccc3c2)nc2c(C)cccc12 (stereo not drawn) ; Acinetobacter baumannii (Ab23); reported colistin MIC shift, Ab23 at (compd concentration) was 16

With Acinetobacter baumannii (Ab23) as the test system, O=C(Nc1cccc(C(F)(F)F)c1)c1c[nH]c2ccc(Br)cc12 showed colistin MIC shift, Ab23 at (compd concentration) of 4

Record CN(C)CCCn1nc(-c2ccc(Cl)c(Cl)c2)c2ccc(C(F)(F)F)cc21 [559a] / Acinetobacter baumannii (Ab23), colistin MIC shift, Ab23 at (compd concentration) recorded as 8

The reported colistin MIC shift, Ab23 at (compd concentration) value, Acinetobacter baumannii (Ab23), for CCN(CC)CCCC(C)Nc1nc(/C=C/c2cccc(Br)c2)nc2cc(Cl)ccc12 (racemic) reads 4

Record COc1cc(-c2nc(NCCCN(C)C)c3cccc(C)c3n2)cc(C(F)(F)F)c1 / Acinetobacter baumannii (Ab23), colistin MIC shift, Ab23 at (compd concentration) recorded as 16
